For each entry below, report its half-life at 10 µM value.
- TEST DETAILS: Half life in human liver microsomes at 10 uM by LC-MS/MS analysis
- Assay type: ADME, Microsome
- CONDITION CONTEXT: liver microsomes

Which half-life at 10 µM reading was recorded for the compound "Clc1ccc2c(NCCNCc3ccc(Br)cc3)ccnc2c1" ?
60 min

Entry "Clc1ccc2c(NCCCNCc3ccc(Br)cc3)ccnc2c1" please
60 min

Entry "COc1ccncc1CNCCCNc1ccnc2cc(Cl)ccc12" please
60 min

All values here come from ChEMBL document CHEMBL2401699.
